- tested.system: OXSR1 434-527, O95747
- Sequence (O95747 434-527): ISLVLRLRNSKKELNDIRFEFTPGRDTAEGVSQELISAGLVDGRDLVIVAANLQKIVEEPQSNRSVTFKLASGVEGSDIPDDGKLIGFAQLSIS

binder | selected by phage display
NWNEWKTGRFLILQTE [DNAH2, Q9P225] | confidence 3 (active)
SEEAKGRFRVNFVDPA [SLC12A2, P55011] | confidence 2 (active)
MPTNFTVVPVEAHADG [SLC12A7, Q9Y666] | confidence 2 (active)
TPTPAPFSRFTVSPAP [AATK, Q6ZMQ8] | confidence 3 (active)
